Where these numbers come from: patent US11498921B1

# System: NCI-H2073 cells (wild-type EGFR human non-small cell lung cancer)
# Test Name: Cell growth inhibition (Cell Titer-Glo), NCI-H2073
# Format: cell-based
# Experimental Parameters: 72 hours drug treatment, 3 nM to 10 μM
Where a name gives a salt, the structure may show the parent alone.
Quantity Kind: pIC50
Numbers only, as −log10 of the molar value.

Some compounds with known pIC50 results, for comparison:
Compound	pIC50
[2H]C([2H])([2H])n1c(=O)n(-c2ccnc(Nc3cc(NC(=O)C=C)c(N(C)CCN(C)C)cc3OC)n2)c2ccccc21 [65. (MsOH)2]	6.82
C=CC(=O)Nc1cc(Nc2nccc(-c3cncc4ccccc34)n2)c(OC)cc1N(C)CCN(C)C [Example 67]	5.39
C=CC(=O)Nc1cc(Nc2nccc(N3CC(C)(C)c4ccccc43)n2)c(OC)cc1N(C)CCN(C)C [37. (MsOH)3]	6.59
[2H]C([2H])([2H])N(CCN(C)c1cc(OC)c(Nc2nccc(-c3cn(CC)c4ccccc34)n2)cc1NC(=O)C=C)C([2H])([2H])[2H] [72. (MsOH)3]	6.55
C=CC(=O)Nc1cc(Nc2nccc(-c3cn(CC(F)(F)F)c4ccccc34)n2)c(OC)cc1N(C)CCN(C)C [104. (MsOH)2]	6.01

Go through the items and report each one's pIC50.
1. C=CC(=O)Nc1cc(Nc2nccc(-n3c(=O)n(C4CC4)c4ccccc43)n2)c(OC)cc1N(C)CCN(C)C [107. (MsOH)2]
2. C=CC(=O)Nc1cc(Nc2nccc(-n3[nH]c(=O)c4ccccc43)n2)c(OC)cc1N(C)CCN(C)C [50. (HCl)n]

1. 6.73
2. 6.54

---

So I've got a bunch of compounds here, and I need their pIC50 values.
# Tested on: NCI-H2073 cells (wild-type EGFR human non-small cell lung cancer)
# Test Name: Cell growth inhibition (Cell Titer-Glo), NCI-H2073
# Format: cell-based
# Experimental Parameters: 72 hours drug treatment, 3 nM to 10 μM
One number for each entry, as −log10 of the molar value.

Please review the entries below; each comes with its answer.
Compound	pIC50
C=CC(=O)Nc1cc(Nc2nccc(N3c4ccccc4N(C)S3(=O)=O)n2)c(OC)cc1N(C)CCN(C)C [110. (MsOH)2]	6.99
C=CC(=O)Nc1cc(Nc2nccc(-c3cn(S(=O)(=O)C(C)C)c4ccccc34)n2)c(OC)cc1N(C)CCN(C)C [102. (MsOH)2]	6.77
C=CC(=O)Nc1cc(Nc2nccc(-c3cn(S(=O)(=O)CC)c4ccccc34)n2)c(OC)cc1N(C)CCN(C)C [101. (MsOH)2]	6.71

Record C=CC(=O)Nc1cc(Nc2nccc(N3c4ccccc4N(CC)S3(=O)=O)n2)c(OC)cc1N(C)CCN(C)C [111. (MsOH)2] . Reported pIC50: 7.31

---

# Tested on: NCI-H2073 cells (wild-type EGFR human non-small cell lung cancer)
# Test Name: Cell growth inhibition (Cell Titer-Glo), NCI-H2073
# Format: cell-based
# Experimental Parameters: 72 hours drug treatment, 3 nM to 10 μM
Counter-ions that a name gives are not always drawn.
Quantity Kind: IC50 (nM)
Answers are plain numbers, in nM.

Record excerpt, results attached:
Compound	Target Desc	IC50, nM
[2H]C([2H])([2H])N(CCN(C)C)c1cc(OC)c(Nc2nccc(-n3c(=O)n(CC)c4ccccc43)n2)cc1NC(=O)C=C	NCI-H2073 cells (wild-type EGFR human non-small cell lung cancer)	43
C=CC(=O)Nc1cc(Nc2cc(-c3cn(C)c4ccccc34)ncn2)c(OC)cc1N(C)CCN(C)C [44. (HCl)n]	NCI-H2073 cells (wild-type EGFR human non-small cell lung cancer)	280
C=CC(=O)Nc1cc(Nc2nccc(-c3cn(C)c4ccccc34)n2)c(OC)cc1N(CC)CCN(C)C	NCI-H2073 cells (wild-type EGFR human non-small cell lung cancer)	1130
C=CC(=O)Nc1cc(Nc2nccc(N3CCc4ccccc43)n2)c(OC)cc1N(C)CCN(C)C	NCI-H2073 cells (wild-type EGFR human non-small cell lung cancer)	335
[2H]C([2H])([2H])N(CCN(C)c1cc(OC)c(Nc2nccc(-n3c(=O)n(C)c4ccccc43)n2)cc1NC(=O)C=C)C([2H])([2H])[2H] [58. (HCl)n]	NCI-H2073 cells (wild-type EGFR human non-small cell lung cancer)	116
C=CC(=O)Nc1cc(Nc2nccc(-c3cn(S(C)(=O)=O)c4ccccc34)n2)c(OC)cc1N(C)CCN(C)C [49. (HCl)n]	NCI-H2073 cells (wild-type EGFR human non-small cell lung cancer)	135

Next up:
Memo: `C=CC(=O)Nc1cc(Nc2nccc(-n3ccc4ccccc43)n2)c(OC)cc1N(C)CCN(C)C` , reported IC50: 295

---

# Test system: NCI-H1975 cells (T790M and L858R EGFR mutations)
# Test Name: Cell growth inhibition (Cell Titer-Glo), NCI-H1975
# Assay type: cell-based
# Experimental Parameters: Homo sapiens, 72 hours drug treatment, 0.03 nM to 100 nM
pIC50: −log10 of the molar value.
Quantity Kind: pIC50

Recorded pIC50, per entry:
C=CC(=O)Nc1cc(Nc2nccc(-c3cn(C)c4ccccc34)n2)c(OC)cc1N1CC(OC)C1 < 7.00
C=CC(=O)Nc1cc(Nc2nccc(-c3cn(C)c4ccccc34)n2)c(OC)cc1N1CCC(N(C)C)CC1 < 7.00

Record pIC50 per entry; entries follow.
1. C=CC(=O)Nc1cc(Nc2nccc(-n3c(=O)n(CC(F)(F)F)c4ccccc43)n2)c(OC)cc1N(C)CCN(C)C
2. C=CC(=O)Nc1cc(Nc2nccc(-c3cn(C)c4ccccc34)n2)c(OC)cc1OCCOC

1: 8.23; 2: < 7.00

---

# Tested on: NCI-H2073 cells (wild-type EGFR human non-small cell lung cancer)
# Test Name: Cell growth inhibition (Cell Titer-Glo), NCI-H2073
# Assay type: cell-based
# Experimental Parameters: 72 hours drug treatment, 3 nM to 10 μM
pIC50: −log10 of the molar value. Where a name gives a salt, the structure may show the parent alone.
Parameter threshold = 7. Response is T when pIC50 meets or exceeds it, else F.

Examples from the recorded data:
Molecule	Label Class
C=CC(=O)Nc1cc(Nc2nccc(-c3nn(C)c4ccccc34)n2)c(OC)cc1N(C)CCN(C)C [1. (HCl)n]	F
[2H]C([2H])([2H])N(CCN(C)c1cc(OC)c(Nc2nccc(-n3c(=O)[nH]c4ccccc43)n2)cc1NC(=O)C=C)C([2H])([2H])[2H] [61. (HCl)n]	T
C=CC(=O)Nc1cc(Nc2nccc(-c3cccc4c3cnn4C)n2)c(OC)cc1N(C)CCN(C)C [42. (HCl)n]	F
[2H]C([2H])([2H])N(CCN(C)c1cc(OC)c(Nc2nccc(-n3nnc4ccccc43)n2)cc1NC(=O)C=C)C([2H])([2H])[2H] [64. (HCl)n]	F

Kindly consider the entry below.
// inclusive: pIC50 at least 7? input: C=CC(=O)Nc1cc(Nc2nccc(-n3c(=O)n(CC(F)(F)F)c4ccccc43)n2)c(OC)cc1N(C)CCN(C)C [108. (MsOH)2]
F

---

# Test system: NCI-H2073 cells (wild-type EGFR human non-small cell lung cancer)
# Test Name: Cell growth inhibition (Cell Titer-Glo), NCI-H2073
# Format: cell-based
# Experimental Parameters: 72 hours drug treatment, 3 nM to 10 μM
Counter-ions that a name gives are not always drawn.
Quantity Kind: IC50 (nM)
Numbers only, in nM.

Molecule	Target Desc	IC50 (nM)
[2H]C([2H])([2H])N(CCN(C)c1cc(OC)c(Nc2nccc(N3CC(C)(C)c4ccccc43)n2)cc1NC(=O)C=C)C([2H])([2H])[2H] [57. (HCl)n]	NCI-H2073 cells (wild-type EGFR human non-small cell lung cancer)	280
C=CC(=O)Nc1cc(Nc2nccc(-c3cn(C)c4ccccc34)n2)c(OC)cc1N(C)CCN(CC)CC	NCI-H2073 cells (wild-type EGFR human non-small cell lung cancer)	870
C=CC(=O)Nc1cc(Nc2nccc(-c3cn(CC(F)F)c4ccccc34)n2)c(OC)cc1N(C)CCN(C)C	NCI-H2073 cells (wild-type EGFR human non-small cell lung cancer)	543

Give IC50 for each listed item.
1. C=CC(=O)Nc1cc(Nc2nccc(-c3cccc4c3ccn4C)n2)c(OC)cc1N(C)CCN(C)C [41. (HCl)n]
2. C=CC(=O)Nc1cc(Nc2nccc(-c3nn(C(C)C)c4ccccc34)n2)c(OC)cc1N(C)CCN(C)C
3. [2H]C([2H])([2H])N(CCN(C)C)c1cc(OC)c(Nc2nccc(-c3cn(CC)c4ccccc34)n2)cc1NC(=O)C=C
4. [2H]C([2H])([2H])N(CCN(C)C)c1cc(OC)c(Nc2nccc(-n3c(=O)n(C([2H])([2H])[2H])c4ccccc43)n2)cc1NC(=O)C=C

[340, 595, 179, 56]
